Where do the numbers come from? From paper PMC10854447.

- Test system: Bcl-2
- testMethodNotes: Bcl-2 level assay
- Format: cell-based, human
- measurementSetup: A-594 cancer cell line
Kindly state Bcl-2 Conc for each of the entries shown.
One number for each entry, in ng/mL.

Solved entries:
- compound: "CN[C@@H]1C[C@H]2O[C@@](C)([C@@H]1OC)n1c3ccccc3c3c4c(c5c6ccccc6n2c5c31)C(=O)NC4 [Staurosporine, reference compound]"
  metric: "Bcl-2 Conc"
  numericResult: 1.00
- compound: "Clc1ccc(-c2noc(Cn3cc(-c4ccccc4)nn3)n2)c(Cl)c1"
  metric: "Bcl-2 Conc"
  numericResult: 0.95

Please go through the list and note Bcl-2 Conc for each compound.
1. COc1cc(-c2noc(Cn3cc(-c4ccccc4)nn3)n2)cc(OC)c1OC
2. COc1ccc(-c2noc(Cn3cc(-c4ccccc4)nn3)n2)cc1OC

0.60
0.80

* * *

- System: Caspase-3
- testMethodNotes: Caspase-3 activation assay
- Type: cell-based, human
- measurementSetup: A-594 cancer cell line
metric: Caspase-3 Conc (pg/mL)
Numbers only, in pg/mL.

Solved entries:
- molecule: "COc1cc(-c2noc(Cn3cc(-c4ccccc4)nn3)n2)cc(OC)c1OC [Compound 7l]"
  Caspase-3 Conc (pg/mL): 587
- molecule: "COc1ccc(-c2noc(Cn3cc(-c4ccccc4)nn3)n2)cc1OC [Compound 7k]"
  Caspase-3 Conc (pg/mL): 530

Please go through the list and note Caspase-3 Conc for each molecule.
1. CN[C@@H]1C[C@H]2O[C@@](C)([C@@H]1OC)n1c3ccccc3c3c4c(c5c6ccccc6n2c5c31)C(=O)NC4 [Staurosporine, reference compound]
2. Clc1ccc(-c2noc(Cn3cc(-c4ccccc4)nn3)n2)c(Cl)c1 [Compound 7j]

[465, 460]

* * *

- Tested on: pancreatic cancer (Panc-1) cell line
- testMethodNotes: cells
- measurementSetup: Homo sapiens, PANC-1, read-out: Antiproliferative activity IC50 ± SEM, Panc-1
metric: IC50 (nM)
Answers are plain numbers, in nM.

Solved entries:
- molecule: "COc1ccc(-c2noc(Cn3cc(-c4ccccc4)nn3)n2)cc1 [Compound 7f]"
  IC50 [nM]: 48
- molecule: "c1ccc(-c2cn(Cc3nc(-c4cccc5ccccc45)no3)nn2)cc1 [Compound 7m]"
  IC50 [nM]: 46
- molecule: "Clc1cccc(-c2noc(Cn3cc(-c4ccccc4)nn3)n2)c1 [Compound 7h]"
  IC50 [nM]: 40
- molecule: "Clc1ccc(-c2noc(Cn3cc(-c4ccccc4)nn3)n2)c(Cl)c1 [Compound 7j]"
  IC50 [nM]: 34
- molecule: "c1ccc(-c2cn(Cc3nc(-c4ccc5c(c4)OCO5)no3)nn2)cc1 [Compound 7o]"
  IC50 [nM]: 78

Please go through the list and note IC50 for each molecule.
1. C#Cc1cccc(Nc2ncnc3cc(OCCOC)c(OCCOC)cc23)c1 [Erlotinib, reference compound]
2. Brc1ccc(-c2noc(Cn3cc(-c4ccccc4)nn3)n2)cc1 [Compound 7d]
3. Clc1ccc(-c2noc(Cn3cc(-c4ccccc4)nn3)n2)cc1 [Compound 7c]
4. c1ccc(-c2cn(Cc3nc(-c4ccccc4)no3)nn2)cc1 [Compound 7a]

[30, 80, 90, 96]

* * *

Record: pIC50 reported on EGFR (Homo sapiens, UniProt P00533).
Sequence (P00533 669-1210): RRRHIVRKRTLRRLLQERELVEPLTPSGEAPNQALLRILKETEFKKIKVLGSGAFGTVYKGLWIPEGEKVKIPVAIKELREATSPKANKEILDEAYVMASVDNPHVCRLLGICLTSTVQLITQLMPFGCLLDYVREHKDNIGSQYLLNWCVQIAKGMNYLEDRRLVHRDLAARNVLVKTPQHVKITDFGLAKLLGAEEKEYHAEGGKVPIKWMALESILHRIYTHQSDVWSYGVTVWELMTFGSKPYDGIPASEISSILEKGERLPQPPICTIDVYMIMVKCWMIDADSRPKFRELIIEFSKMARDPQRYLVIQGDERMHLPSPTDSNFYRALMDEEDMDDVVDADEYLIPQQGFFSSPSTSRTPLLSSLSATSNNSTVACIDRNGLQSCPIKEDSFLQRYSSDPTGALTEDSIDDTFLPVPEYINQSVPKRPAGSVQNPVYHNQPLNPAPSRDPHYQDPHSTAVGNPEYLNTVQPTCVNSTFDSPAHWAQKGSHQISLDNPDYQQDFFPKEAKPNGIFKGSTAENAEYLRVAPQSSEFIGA
Give bare numbers, as −log10 of the molar value.

Solved entries:
- inputSmiles: "Clc1cccc(-c2noc(Cn3cc(-c4ccccc4)nn3)n2)c1"
  testedSystem: "EGFR (Homo sapiens, UniProt P00533)"
  numericResult: 6.98
- inputSmiles: "COc1ccc(-c2noc(Cn3cc(-c4ccccc4)nn3)n2)cc1OC"
  testedSystem: "EGFR (Homo sapiens, UniProt P00533)"
  numericResult: 7.09
- inputSmiles: "Clc1ccc(-c2noc(Cn3cc(-c4ccccc4)nn3)n2)c(Cl)c1"
  testedSystem: "EGFR (Homo sapiens, UniProt P00533)"
  numericResult: 7.05

Report measured pIC50 on EGFR (Homo sapiens, UniProt P00533); entry: Brc1cccc(-c2noc(Cn3cc(-c4ccccc4)nn3)n2)c1 7.01
